Target: AP2-associated protein kinase 1 (Homo sapiens); note: in the data inactive means no Kd found up to 30 µM
Sequence (Q2M2I8 whole entry): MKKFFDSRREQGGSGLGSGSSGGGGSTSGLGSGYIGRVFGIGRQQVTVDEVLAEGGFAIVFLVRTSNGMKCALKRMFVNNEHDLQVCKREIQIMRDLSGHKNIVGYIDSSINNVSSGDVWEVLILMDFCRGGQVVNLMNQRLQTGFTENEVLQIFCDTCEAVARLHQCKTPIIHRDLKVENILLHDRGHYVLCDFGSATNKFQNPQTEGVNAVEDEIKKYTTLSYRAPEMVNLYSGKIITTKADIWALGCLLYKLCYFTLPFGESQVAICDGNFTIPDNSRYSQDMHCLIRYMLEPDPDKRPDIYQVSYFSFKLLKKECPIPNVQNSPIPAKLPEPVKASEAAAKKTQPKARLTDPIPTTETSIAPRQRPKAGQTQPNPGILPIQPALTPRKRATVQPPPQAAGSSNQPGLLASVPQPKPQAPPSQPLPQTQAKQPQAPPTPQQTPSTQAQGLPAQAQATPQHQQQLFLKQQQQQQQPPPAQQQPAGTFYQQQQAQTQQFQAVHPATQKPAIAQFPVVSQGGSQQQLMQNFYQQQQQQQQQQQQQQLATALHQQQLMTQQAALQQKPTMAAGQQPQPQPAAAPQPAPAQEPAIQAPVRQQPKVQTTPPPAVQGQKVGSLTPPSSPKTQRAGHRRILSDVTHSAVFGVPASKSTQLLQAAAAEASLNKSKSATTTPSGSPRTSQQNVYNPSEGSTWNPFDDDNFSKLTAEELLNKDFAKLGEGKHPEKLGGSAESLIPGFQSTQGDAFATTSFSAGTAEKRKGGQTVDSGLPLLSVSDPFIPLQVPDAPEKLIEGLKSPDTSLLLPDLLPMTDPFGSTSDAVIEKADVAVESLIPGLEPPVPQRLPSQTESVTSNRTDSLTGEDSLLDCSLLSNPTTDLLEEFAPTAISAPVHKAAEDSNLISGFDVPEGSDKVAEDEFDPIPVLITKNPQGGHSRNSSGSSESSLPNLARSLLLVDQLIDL
Activity calls are given as the source filed them.
Pick one: 1 (yes) for active, 0 (no) for inactive

# compound, assigned-label
data = [
    ("COc1cc(CCc2cc(NC(=O)c3ccc(N4C[C@@H](C)N[C@@H](C)C4)cc3)n[nH]2)cc(OC)c1", "0 (no)"),
    ("OCCn1cc(-c2cnc3nnn(Cc4ccc5ncccc5c4)c3n2)cn1", "0 (no)"),
    ("O=c1sn(-c2cccc3ccccc23)c(=O)n1Cc1ccccc1", "0 (no)"),
    ("CNC(=O)c1ccc(-c2cnc3ncc(Cc4ccc5ncccc5c4)n3n2)cc1F", "0 (no)"),
    ("CN1CCC(CNc2ccc3ncc(-c4cccc(OC(F)(F)F)c4)n3n2)CC1", "0 (no)"),
    ("CC(=O)Nc1cccc(-n2c(=O)n(C3CC3)c(=O)c3c(Nc4ccc(I)cc4F)n(C)c(=O)c(C)c32)c1", "0 (no)"),
    ("CO[C@H]1C[C@@H]2CC[C@@H](C)[C@@](O)(O2)C(=O)C(=O)N2CCCC[C@H]2C(=O)O[C@H]([C@H](C)C[C@@H]2CC[C@@H](OCCO)[C@H](OC)C2)CC(=O)[C@H](C)/C=C(\\C)[C@@H](O)[C@@H](OC)C(=O)[C@H](C)C[C@H](C)/C=C/C=C/C=C/1C", "0 (no)"),
    ("N[C@@H]1CCCN(c2c(/C=C3\\SC(=O)NC3=O)cccc2-c2ccccc2)C1", "0 (no)"),
]

Given CCS(=O)(=O)N1CC(CC#N)(n2cc(-c3ncnc4[nH]ccc34)cn2)C1 , state the outcome it received in this test.
1 (yes)
